Catalogue of Cmax at 24 h values
# assay.notes: Mouse tissue (liver, kidney, brain) pharmacokinetics after oral dose
# Type: in vivo, male C57BL/6 mice
# stated.conditions: male, C57BL/6, mouse, po; liver, prodrug, p.o. 10 mg/kg
I only need the number, in ng/mL, no unit after it.

Please review the entries below; each comes with its answer.
1. CCCCCCCCCCCCCCCCSCCCOP(=O)(O)CO[C@H](C)Cn1cnc2c(N)ncnc21.N :: 1250
2. C[C@H](Cn1cnc2c(N)ncnc21)OCP(=O)(O)OCCCSCCCCCCCCCCCCc1ccc(F)cc1.N [16g] :: 5330

Please examine the following record next.
Query: Looking for the measured Cmax at 24 h of C[C@H](Cn1cnc2c(N)ncnc21)OCP(=O)(O)OCCCSCCCCCCCCCCCCC1CCCCC1.N [16h] , can you help?
Response: 2150

Hello, the source for this data is paper PMC11513920, in case you need it.
